Cited source for all entries: PubChem BioAssay

- experiment-description: viability loss in pontine glioma line – cell-based, SU-DIPG-IV, MIPE4.0, CellTiter-Glo, qHTS, dose response (AID 1347063);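 note: compound exposure lasted 48 hours before the viability readout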
- recorded-conditions: CellTiter-Glo ATP luminescence
Inconclusive results are not listed. Activity calls are given as the source filed them. No cut-off is given here; in the data, nearly all actives have AC50 up to about 30 µM.
Give your call using only these classes: active, inactive

Observe how each entry below is paired with its result.
C=C(C)[C@@H]1CC[C@]2(C)CC[C@]3(C)[C@H](CC[C@@H]4[C@@]5(C)CC[C@H](O)C(C)(C)[C@@H]5CC[C@]43C)[C@@H]12 : inactive
Nc1nc(-c2nn(Cc3ccccc3F)c3ncccc23)nc(N)c1N1CCOCC1 : inactive
CC(=O)O/N=C1/C(c2c(O)[nH]c3cc(Br)ccc23)=Nc2ccccc21 : active
CCc1ccc(/C=C2/SC(=S)NC2=O)cc1 : inactive

Switching to the query record.
Input: # lookup: test call for `COc1cc2c(NC3CCN(C(C)C)CC3)nc(C3CCCCC3)nc2cc1OCCCN1CCCC1`
Output: active
